# experiment_notes: Cytotoxicity against human ChaGo cells after 3 days by MTT assay
# Format: functional, cell-based
# measurement_setup: 72 h
observed_property: pIC50
# reply with the number alone; pIC50 is -log10 of concentration in mol/L

Lookup: Fill in the blank: the reported pIC50 of COC(=O)CC[C@@H]1[C@@H](C)C(=O)C([C@@H](OC(C)=O)[C@@]2(O)C(=O)CC[C@]3(C)C2=CC(=O)O[C@H]3c2ccoc2)=CC1(C)C is ____.
Found: 5.04

Lookup: Repeat with CC1(C)C(=O)C=C[C@]2(C)[C@H]3CC[C@@]4(C)[C@H](c5ccoc5)OC(=O)[C@H]5O[C@]54[C@]3(C)[C@H](O)C[C@@H]12
Found: 4.80
